tested system: Recombinant human MALT-1 (amino acids 340-824) (Homo sapiens (Human), UniProt Q9UDY8)
Sequence (Q9UDY8 340-824): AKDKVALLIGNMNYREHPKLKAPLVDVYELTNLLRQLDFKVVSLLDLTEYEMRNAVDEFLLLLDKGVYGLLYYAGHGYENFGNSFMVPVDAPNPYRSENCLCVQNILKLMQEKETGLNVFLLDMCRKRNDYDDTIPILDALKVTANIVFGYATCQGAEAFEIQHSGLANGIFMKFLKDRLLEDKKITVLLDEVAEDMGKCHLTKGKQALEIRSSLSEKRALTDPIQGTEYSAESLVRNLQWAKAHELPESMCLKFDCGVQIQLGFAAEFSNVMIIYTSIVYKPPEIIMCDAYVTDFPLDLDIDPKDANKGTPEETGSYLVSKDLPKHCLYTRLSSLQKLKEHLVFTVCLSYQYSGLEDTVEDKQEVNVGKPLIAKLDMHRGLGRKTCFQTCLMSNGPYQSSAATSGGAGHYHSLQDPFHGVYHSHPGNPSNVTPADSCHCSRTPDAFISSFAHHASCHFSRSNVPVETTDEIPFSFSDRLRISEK
test description: MALT-1 inhibition assay (fluorogenic substrate Ac-LRSR-Rh110-DP)
condition info: recombinant human MALT-1, substrate Ac-LRSR-Rh110-DP
pIC50: −log10 of the molar value.
reported endpoint: pIC50

Examples from the recorded data:
C[C@@H]1CCN(c2ccc([C@H](N(C)C(=O)[C@H]3CC[S@](=N)(=O)CC3)C(F)(F)F)cc2)c2cnc3cc(F)nn3c21 (relative stereo)    7.46
CN(C(=O)[C@H]1C[C@@H](C(=O)O)C1)[C@@H](c1ccc(N2CCCc3c2cnc2cc(Cl)nn32)cc1)C(F)(F)F    7.14

I = COC[C@@]1(C)CCN(c2ccc([C@H](N(C)C(=O)[C@H]3CC[S@@](=N)(=O)CC3)C(F)(F)F)cc2)c2cnc3cc(Cl)nn3c21 (relative stereo)
II = COc1ccc2ncc3c(c2n1)CCCN3c1ccc([C@H](N(C)C(=O)C2CCS(=O)(=O)CC2)C(F)(F)F)cc1
III = CN(C(=O)[C@H]1CC[S@@](=N)(=O)CC1)[C@@H](c1ccc(N2CCC3(CC3)c3c2cnc2cc(Cl)nn32)cc1)C(F)(F)F
IV = CN(C(=O)[C@@H]1CNC(=O)N1)[C@@H](c1ccc(N2CCCc3c2cnc2cc(Cl)nn32)cc1)C(F)(F)F (relative stereo)
# sort list by recorded pIC50, greatest to least Field: ranking. Enter the labels in the order requested.
III, IV, I, II
(III: 7.57, IV: 7.29, I: 7.09, II: 6.66)
